tested on: U2OS; assay: Incucyte cell viability with U2OS; format: toxicity, cell-based; conditions: human, 18 h, 10 µM, compound concentration 10 uM, replicate number 1; further: unitless GR value; below 1 slowed growth and below 0 cell loss
# label = label 1 if Growth Rate < 0.8 else label 0

hey, is Growth Rate for CC(=O)Oc1ccc2c(c1)[C@@]1(C)CCC[C@](C)(C(=O)OC(=O)[C@@]3(C)CCC[C@]4(C)c5cc(OC(C)=O)ccc5CC[C@@H]34)[C@@H]1CC2 [ACETYL PODOCARPIC ACID ANHYDRIDE] lower than 0.8 or not?
label 1

Please let me know if `C=CC(=O)Nc1ccc2[nH]c(=O)n(C3CCN(Cc4ccc(-c5ccc6c(c5)NC(=O)CO6)cc4)CC3)c2c1` shows Growth Rate below 0.8.
label 1

I'd appreciate it if you could check whether `CN[C@@H](C)C(=O)N[C@H](C(=O)N1CCC[C@H]1c1nc(C(=O)c2ccc(F)cc2)cs1)C1CCCCC1` has Growth Rate smaller than 0.8.
label 0

Please state whether Growth Rate is below 0.8 for `CC(=O)Nc1nc(CN2CCC[C@H](Cc3cc(C)nc(C)c3)C2)cs1`
label 0

I wonder whether COc1c(-c2cn(C3CCC(=O)NC3=O)nn2)csc1C(=O)N1CCCC1 (configuration not stated) has Growth Rate below 0.8. Can you tell?
label 0

Is Growth Rate strictly under 0.8 for the entry `CCN1CCN(Cc2ccc(NC(=O)c3ccc(C)c(Oc4ccnc5[nH]ccc45)c3)cc2C(F)(F)F)CC1.Cl.Cl.Cl.O` ?
label 1

Regarding `CS(=O)(=O)c1ccc(-c2cnc(N)c(C(=O)Nc3ccccc3)n2)cc1` , kindly confirm whether its Growth Rate is beneath 0.8.
label 1
